Hey, just so you know, these numbers are from paper PMC9482650.

# Measurement target: T1, LIN7B, Q9HAP6
# T1 sequence (Q9HAP6 88-185, limits assumed, looked up): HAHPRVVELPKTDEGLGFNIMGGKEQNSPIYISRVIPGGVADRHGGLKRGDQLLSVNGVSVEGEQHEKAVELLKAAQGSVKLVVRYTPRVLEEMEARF
# Assay explanation: holdup assay
# Set-up: key: below the threshold = too weak to quantify, mostly under pKd 3.1 to 4
# Condition parameters: plain residues with an end cap or a label only (N-terminal biotin on a linker: ado-ado)
Attribute measured: pKd

> print(dat)
                        binder      recorded.result
1   DPAESMESLV [PTPRG, P23470]  below the threshold
2  NTLNRKTTPV [CACNG8, Q8WXS5]  below the threshold
3   ELSATVTTDC [TRIP6, Q15654]  below the threshold
4    SRSVVESDEL [MYPN, Q86TC9]  below the threshold
5  NIAESLESLV [PTPRZ1, P23471]  below the threshold

Query: Identify measured pKd associated with MHIQEKGFHV [EPHA6, Q9UF33]
Response: below the threshold

Query: Quote pKd reported for NISYRRESAI [KCNJ4, P48050] please.
Response: 3.74

Query: Fill in reported pKd for this entry: EDGESWEYQI [TRPV6, Q9H1D0]
Response: 3.59

Query: Give the reported value of pKd for this record: ARSAAASNYV [CLDN4, O14493]
Response: below the threshold
